EXPERIMENTAL DETAILS: Intrinsic dissolution rate in pH 2.5 HCl/NaCl aqueous solution
Type: physicochemical
ASSAY SETUP: 5 min; pH 2.5 HCl/NaCl, 37° C., 0.5 cm^2 pellet
Procedure: Approximately 200 mg of Form A and Form I in WO2017002095A1 were added into the die, compressed at 10 kN and held for 1 minute to obtain a pellet having a surface area of 0.5 cm^2. The whole tool with the pellet was transferred to a dissolution apparatus to test the intrinsic dissolution rate. The slope (mg/min) was calculated according to the data within 0-45 minutes. Intrinsic dissolution rate (IDR, mg/min/cm^2) was further calculated according to the slope. […]
OBSERVED PROPERTY: Cumulative dissolution (mg)

1) CC#CC(=O)N1CCC[C@H]1c1nc(-c2ccc(C(=O)Nc3ccccn3)cc2)c2c(N)nccn12 [Form D]: 0.70
2) CC#CC(=O)N1CCC[C@H]1c1nc(-c2ccc(C(=O)Nc3ccccn3)cc2)c2c(N)nccn12 [Form G]: 1.28
3) CC#CC(=O)N1CCC[C@H]1c1nc(-c2ccc(C(=O)Nc3ccccn3)cc2)c2c(N)nccn12 [Form CS15]: 1.06
4) CC#CC(=O)N1CCC[C@H]1c1nc(-c2ccc(C(=O)Nc3ccccn3)cc2)c2c(N)nccn12 [Form F]: 1.31
5) CC#CC(=O)N1CCC[C@H]1c1nc(-c2ccc(C(=O)Nc3ccccn3)cc2)c2c(N)nccn12 [Form A]: 1.13
6) CC#CC(=O)N1CCC[C@H]1c1nc(-c2ccc(C(=O)Nc3ccccn3)cc2)c2c(N)nccn12 [Form I in WO2017002095A1, reference compound]: 0.92

###

EXPERIMENTAL DETAILS: Adhesiveness (amount of material sticking to the punch)
Assay type: physicochemical
ASSAY SETUP: about 30 mg, φ8 mm round tooling, 10 kN, compression repeated twice
Description: Approximately 30 mg of Form A and Form I in WO2017002095A1 were weighed, added into the dies of a φ8 mm round tooling, compressed at 10 kN and held for about 30 s. The amount of material sticking to the punch was weighed. The compression was repeated twice and the cumulative amount and average amount of material sticking to the punch during the compression were recorded. […]
OBSERVED PROPERTY: Average amount (material sticking to the punch) (µg)

1) CC#CC(=O)N1CCC[C@H]1c1nc(-c2ccc(C(=O)Nc3ccccn3)cc2)c2c(N)nccn12 [Form I in WO2017002095A1, reference compound]: 45
2) CC#CC(=O)N1CCC[C@H]1c1nc(-c2ccc(C(=O)Nc3ccccn3)cc2)c2c(N)nccn12 [Form F]: 30
3) CC#CC(=O)N1CCC[C@H]1c1nc(-c2ccc(C(=O)Nc3ccccn3)cc2)c2c(N)nccn12 [Form G]: 30
4) CC#CC(=O)N1CCC[C@H]1c1nc(-c2ccc(C(=O)Nc3ccccn3)cc2)c2c(N)nccn12 [Form A]: 40

###

EXPERIMENTAL DETAILS: Intrinsic dissolution rate in pH 2.5 HCl/NaCl aqueous solution
Assay type: physicochemical
ASSAY SETUP: 10 min; pH 2.5 HCl/NaCl, 37° C., 0.5 cm^2 pellet
OBSERVED PROPERTY: Cumulative dissolution (mg)

// known answers, use as guide
1) CC#CC(=O)N1CCC[C@H]1c1nc(-c2ccc(C(=O)Nc3ccccn3)cc2)c2c(N)nccn12 [Form D]: 1.73
2) CC#CC(=O)N1CCC[C@H]1c1nc(-c2ccc(C(=O)Nc3ccccn3)cc2)c2c(N)nccn12 [Form F]: 2.47
3) CC#CC(=O)N1CCC[C@H]1c1nc(-c2ccc(C(=O)Nc3ccccn3)cc2)c2c(N)nccn12 [Form G]: 2.36
4) CC#CC(=O)N1CCC[C@H]1c1nc(-c2ccc(C(=O)Nc3ccccn3)cc2)c2c(N)nccn12 [Form CS15]: 2.34

A = CC#CC(=O)N1CCC[C@H]1c1nc(-c2ccc(C(=O)Nc3ccccn3)cc2)c2c(N)nccn12 [Form A]
B = CC#CC(=O)N1CCC[C@H]1c1nc(-c2ccc(C(=O)Nc3ccccn3)cc2)c2c(N)nccn12 [Form I in WO2017002095A1, reference compound]
-- ask Which record would sort first by descending Cumulative dissolution, A or B ? Response format: the label of the selected entry.
-- reply A
